assay.explanation: ADME solubility determination in PBS at pH 2.0 and pH 7.4
Format: physicochemical
assay.conditions: phosphate buffered saline, 25 °C, pH 2, aqueous buffer, thermodynamic from solid, PBS pH 2.0, 25° C., read-out: Solubility at pH 2.0
observed.property: solubility at 24 h

Some compounds with known solubility at 24 h results, for comparison:
                                   compound  data_value
0  CCn1cc(C(F)(F)F)nc1-c1ccc(NC2CCCn3nc(-c4c(Cl)cnn4C(C)C)cc32)cc1F (stereo not shown) [Example 241]     < 10 µM
1  CCn1cc(C(F)(F)F)nc1-c1ccc(CC2c3cc(-c4c(OC)ncnc4C4CC4)nn3CCN2C)cc1 (stereo not shown) [Example 362]     ≥ 10 µM
2  CC(C)n1ncc(Cl)c1-c1cc2n(n1)CCC(=O)N2Cc1ccc(-c2ncccc2OC2CC2)c(Cl)c1 [Example 290]     ≥ 10 µM
3  CC(C)n1cc(C(F)(F)F)nc1-c1ccc(CN2C(=O)CCn3nc(-c4c(Cl)cnn4C(C)C)cc32)cc1 [Example 91]     < 10 µM
4  CCn1cc(C(F)(F)F)nc1-c1ccc([C@@H](C)n2c(=O)ccn3nc(-c4c(OC)ncnc4C4CC4)cc23)cc1 [Example 335]     ≥ 10 µM
5  CCn1cc(C(F)(F)F)nc1-c1ccc([C@@H](C)N2C(=O)CCn3nc(-c4c(OC)ncnc4C4CC4)nc32)cc1F [Example 191]     < 10 µM

Shifting focus to the compound that follows.
Prompt: Please report the recorded solubility at 24 h for CCn1cc(C(F)(F)F)nc1-c1ccc(CN2C(=O)CCn3nc(-c4c(Cl)cnn4C4(COC)CC4)cc32)cc1F [Example 153] .
Completion: < 10 µM

====

assay.explanation: ADME solubility determination in PBS at pH 2.0 and pH 7.4
Type: physicochemical
assay.conditions: phosphate buffered saline, 25 °C, pH 7.4, aqueous buffer, thermodynamic from solid, PBS pH 7.4, 25° C., read-out: Solubility at pH 7.4
# reported solubility at 24 h; entries follow

Some molecules with known solubility at 24 h results, for comparison:
>>> print(df.to_string())
                                   molecule   observed_property  data_value
0  CCn1cc(C(F)(F)F)nc1-c1ccc(NC2CCCn3nc(-c4c(Cl)cnn4C(C)C)cc32)cc1C#N (stereo not shown)  solubility at 24 h     < 10 µM
1  CCn1cc(C(F)(F)F)nc1-c1ccc(Cn2c(=O)ccn3nc(-c4c(OC)ncnc4C4CC4)cc23)cc1  solubility at 24 h     ≥ 10 µM
2  CC(C)n1ncc(Cl)c1-c1cc2n(n1)CCCN2Cc1ccc(-c2nc(C(F)(F)F)cn2CCF)cc1  solubility at 24 h     < 10 µM

Shifting focus to the molecule that follows.
Prompt: Please report the recorded solubility at 24 h for "Cn1cc(C(F)(F)F)nc1-c1ccc(CN2C(=O)CCn3nc(-c4c(Cl)cnn4C4CCC4)cc32)cc1F" .
Completion: < 10 µM

====

# reported solubility at 24 h; entries follow
assay.explanation: ADME solubility determination in PBS at pH 2.0 and pH 7.4
Assay type: physicochemical
assay.conditions: phosphate buffered saline, 25 °C, pH 2, aqueous buffer, thermodynamic from solid, PBS pH 2.0, 25° C., read-out: Solubility at pH 2.0

In [3]: df
Out[3]:
                                   molecule   observed_property  data_value
0  CCn1cc(C(F)(F)F)nc1-c1ccc(NC2CCCn3nc(-c4c(Cl)cnn4C(C)C)cc32)cc1C#N (stereo not shown) [Example 255]  solubility at 24 h     < 10 µM
1  CC(C)n1cc(C(F)(F)F)nc1-c1ccc(CN2C(=O)CCn3nc(-c4c(Cl)cnn4C(C)C)nc32)cc1F [Example 40]  solubility at 24 h     < 10 µM
2  CCn1cc(C(F)(F)F)nc1-c1ccc([C@@H](C)n2c(=O)ccn3nc(-c4c(OC)ncnc4C4CC4)nc23)cc1 [Example 338]  solubility at 24 h     ≥ 10 µM

Shifting focus to the molecule that follows.
Prompt: Please report the recorded solubility at 24 h for Cc1cnn(C(C)C)c1-c1nc2n(n1)CCCN2Cc1ccc(-c2nc(C(F)(F)F)cn2C)cc1 [Example 221] .
Completion: ≥ 10 µM

====

# reported half-life at 1 μM; entries follow
assay.explanation: Liver microsomal metabolic stability, human liver microsomes (HLM)
assay.conditions: human, liver microsomes

>>> df
                                   molecule  observed_property  data_value
0  CCn1cc(C(F)(F)F)nc1-c1ccc(CN2C(=O)CCn3nc(-c4c(Cl)cnn4C4(COC)CC4)cc32)cc1 [Example 159]  half-life at 1 μM    > 25 min

Shifting focus to the molecule that follows.
Prompt: Please report the recorded half-life at 1 μM for COCc1cc(C(F)(F)F)nn1-c1ccc(CN2C(=O)CCn3nc(-c4c(Cl)cnn4C(C)C)cc32)cc1 [Example 100] .
Completion: < 25 min

====

assay.explanation: ADME solubility determination in PBS at pH 2.0 and pH 7.4
Format: physicochemical
assay.conditions: phosphate buffered saline, 25 °C, pH 7.4, aqueous buffer, thermodynamic from solid, PBS pH 7.4, 25° C., read-out: Solubility at pH 7.4
observed.property: solubility at 24 h

Some compounds with known solubility at 24 h results, for comparison:
>>> df
                                   compound  data_value
0  CCn1cc(C(F)(F)F)nc1-c1ccc([C@H](C)N2C(=O)CCn3nc(-c4c(C#N)cnn4C(C)C)cc32)cc1F (single isomer, unassigned)     < 10 µM
1  COc1ncnc(C2CC2)c1-c1nc2n(Cc3ccc(-c4nc(C(F)(F)F)cn4C(C)C)c(F)c3OC)c(=O)ccn2n1     < 10 µM
2  CCn1cc(C(F)(F)F)nc1-c1ccc(N[C@@H]2CCCn3nc(-c4c(Cl)cnn4[C@@H](C)CF)cc32)cc1 (single isomer, unassigned)     < 10 µM
3  COc1cccnc1-c1ccc(CN2C(=O)CCn3nc(-c4c(Cl)cnn4C(C)C)cc32)cc1     < 10 µM
4  CCn1cc(C(F)(F)F)nc1-c1ccc(Cn2c(=O)ccn3nc(-c4c(OC)ncnc4C4CC4)nc23)cc1     < 10 µM
5  COc1nccc(C2CC2)c1-c1nc2n(n1)CCC(=O)N2Cc1ccc(-c2nc(C(F)(F)F)cn2C(C)C)c(F)c1     < 10 µM
6  CCn1cc(C(F)(F)F)nc1-c1ccc(CN2C(=O)CCn3nc(-c4c(OC)ncnc4C4CC4)nc32)c(OC)c1F     ≥ 10 µM
7  COc1ncnc(C2CC2)c1-c1nc2n(n1)CCC(=O)N2[C@H](C)c1ccc(-c2nc(C(F)(F)F)cn2C2CC2)cc1     ≥ 10 µM
8  COc1ncnc(C2CC2)c1-c1cc2n(n1)CCC(=O)N2Cc1ccc(-n2nc(C#N)cc2OC)c(F)c1     < 10 µM
9  CCn1cc(C(F)(F)F)nc1-c1ccc(C(C)N2C(=O)CCn3nc(-c4c(OC)ncnc4C4CC4)cc32)cc1 (centres unmarked)     ≥ 10 µM

Prompt: Please report the recorded solubility at 24 h for "Cc1cnn(C(C)C)c1-c1cc2n(n1)CCC(=O)N2Cc1ccc(-n2nc(C(F)(F)F)cc2C)cc1" .
Completion: < 10 µM

Prompt: Please report the recorded solubility at 24 h for CCn1cc(C(F)(F)F)nc1-c1ccc(OC2CCCn3nc(-c4c(Cl)cnn4C(C)C)cc32)cc1 (centres unmarked) .
Completion: < 10 µM

Prompt: Please report the recorded solubility at 24 h for "CCn1cc(C(F)(F)F)nc1-c1ccc([C@@H](C)n2c(=O)ccn3nc(-c4c(OC)ncnc4C4CC4)nc23)cc1F" .
Completion: ≥ 10 µM

Prompt: Please report the recorded solubility at 24 h for COc1ncnc(C2CC2)c1-c1cc2n(n1)CC(C)C(=O)N2Cc1ccc(-c2nc(C(F)(F)F)cn2C)cc1 (centres unmarked) .
Completion: < 10 µM

====

assay.explanation: ADME solubility determination in PBS at pH 2.0 and pH 7.4
Assay type: physicochemical
assay.conditions: phosphate buffered saline, 25 °C, pH 2, aqueous buffer, thermodynamic from solid, PBS pH 2.0, 25° C., read-out: Solubility at pH 2.0
# reported solubility at 24 h; entries follow

Some compounds with known solubility at 24 h results, for comparison:
>>> df
                                   compound  data_value
0  Cc1cnn(C(C)C)c1-c1cc2n(n1)CCC(=O)N2Cc1ccc(-c2nc(C(F)(F)F)c[nH]2)cc1     < 10 µM
1  CCn1cc(C(F)(F)F)nc1-c1ccc(CN2C(=O)CCn3nc(-c4c(OC)ncnc4C4CC4)nc32)cc1Cl     ≥ 10 µM
2  CCn1cc(C(F)(F)F)nc1-c1ccc(NC2CCCCn3nc(-c4c(Cl)cnn4C(C)C)cc32)cc1 (stereo not drawn)     < 10 µM
3  CCn1cc(C(F)(F)F)nc1-c1ccc(CN2C(=O)CCn3nc(-c4c(Cl)cnn4[C@H](C)COC)cc32)cc1F     < 10 µM
4  CCn1cc(C#N)nc1-c1ccc(NC2CCCn3nc(-c4c(Cl)cnn4C(C)C)cc32)cc1 (stereo not drawn)     < 10 µM
5  CCn1cc(C(F)(F)F)nc1-c1c(F)cc(CN2C(=O)CCn3nc(-c4c(Cl)cnn4C(C)C)nc32)cc1OC     < 10 µM
6  CCn1cc(C(F)(F)F)nc1-c1ccc([C@@H](C)N2C(=O)CCn3nc(-c4c(OC)ncnc4C4CC4)cc32)cc1F     ≥ 10 µM
7  CCn1cc(C(F)(F)F)nc1-c1ccc([C@H](C)N2C(=O)CCn3nc(-c4c(Cl)cnn4C(C)C)nc32)cc1OC     ≥ 10 µM

Shifting focus to the compound that follows.
Prompt: Please report the recorded solubility at 24 h for CCn1cc(C(F)(F)F)nc1-c1ccc(CN2C(=O)C(C)Cn3nc(-c4c(Cl)cnn4C(C)C)nc32)cc1F (stereo not drawn) .
Completion: < 10 µM

# credit: patent US20230219965A1
